target: EGFR (Homo sapiens); construct: purchased Carna Biosciences, Inc; host or cells: insect cell expression system; assay: Enzyme inhibitory activity on EGFR (time resolution fluorescence, biotinylated poly-Glu-Tyr substrate); format: biochemical; conditions: EGFR purified from insect cell expression system; ATP solution 125 μM; room temperature, 60 minutes
Sequence (P00533 25-1210): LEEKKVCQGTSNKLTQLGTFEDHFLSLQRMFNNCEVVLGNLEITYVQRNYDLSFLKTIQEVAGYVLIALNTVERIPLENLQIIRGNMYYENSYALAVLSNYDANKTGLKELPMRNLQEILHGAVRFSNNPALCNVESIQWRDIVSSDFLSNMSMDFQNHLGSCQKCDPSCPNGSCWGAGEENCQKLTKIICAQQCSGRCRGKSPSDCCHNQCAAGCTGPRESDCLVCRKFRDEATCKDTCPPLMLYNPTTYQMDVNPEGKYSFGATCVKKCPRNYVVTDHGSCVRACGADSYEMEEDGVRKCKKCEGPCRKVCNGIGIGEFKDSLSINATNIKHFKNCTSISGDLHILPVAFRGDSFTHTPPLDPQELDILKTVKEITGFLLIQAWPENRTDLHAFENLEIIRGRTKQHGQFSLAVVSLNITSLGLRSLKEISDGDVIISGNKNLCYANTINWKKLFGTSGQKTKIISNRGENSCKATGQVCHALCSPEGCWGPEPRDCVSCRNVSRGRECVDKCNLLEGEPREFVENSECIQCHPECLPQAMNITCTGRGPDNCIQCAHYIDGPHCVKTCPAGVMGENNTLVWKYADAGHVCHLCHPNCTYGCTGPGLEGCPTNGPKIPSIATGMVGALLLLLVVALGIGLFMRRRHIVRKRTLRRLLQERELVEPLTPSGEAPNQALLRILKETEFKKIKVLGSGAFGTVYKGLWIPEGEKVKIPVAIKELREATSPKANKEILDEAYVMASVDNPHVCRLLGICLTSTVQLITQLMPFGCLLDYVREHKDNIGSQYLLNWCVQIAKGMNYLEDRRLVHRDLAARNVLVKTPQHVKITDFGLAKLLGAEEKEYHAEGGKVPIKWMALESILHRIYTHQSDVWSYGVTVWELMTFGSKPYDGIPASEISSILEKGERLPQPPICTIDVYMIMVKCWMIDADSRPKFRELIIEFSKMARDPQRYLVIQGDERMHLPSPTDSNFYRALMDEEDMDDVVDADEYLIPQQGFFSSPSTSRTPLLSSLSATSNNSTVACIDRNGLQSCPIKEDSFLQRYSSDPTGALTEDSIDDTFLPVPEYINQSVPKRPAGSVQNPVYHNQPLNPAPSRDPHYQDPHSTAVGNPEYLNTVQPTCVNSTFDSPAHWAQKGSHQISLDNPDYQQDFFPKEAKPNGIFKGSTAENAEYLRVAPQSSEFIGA
Property name: IC50 (nM)

# annotated cases, reported IC50 shown
• CC#C/C(=N\OC[C@@H]1CNCC(=O)N1)c1ccc2ncnc(Nc3ccc(OCc4cccc(F)c4)c(Cl)c3)c2c1 = 81
• CC#C/C(=N\OC[C@H]1COCCN1)c1ccc2ncnc(Nc3ccc(OCc4cccc(F)c4)c(Cl)c3)c2c1 = 72

(A) CC#C/C(=N\OCCNCCS(C)(=O)=O)c1ccc2ncnc(Nc3ccc(OCc4cccc(F)c4)c(Cl)c3)c2c1
(B) CC#C/C(=N\OC[C@H]1CNCC(=O)N1)c1ccc2ncnc(Nc3ccc(OCc4cccc(F)c4)c(Cl)c3)c2c1
Ask: Between A and B , which one shows the larger IC50 value? Record your answer as the label of the chosen record.
Result: A

----------
biological target: HER2 (Homo sapiens); construct: purchased Carna Biosciences, Inc; host or cells: insect cell expression system; test: Enzyme inhibitory activity on HER2 (time resolution fluorescence, biotinylated poly-Glu-Tyr substrate); assay type: biochemical; conditions: enzyme reaction at room temperature for 60 minutes
Property name: IC50 (nM)

- CC#C/C(=N\OCC1COCCN1)c1ccc2ncnc(Nc3ccc(S(=O)(=O)c4ccccc4)cc3)c2c1 (stereo not drawn): 20
- CC#C/C(=N\OCCN1CC[C@@H](OC(N)=O)C1)c1ccc2ncnc(Nc3ccc(OCc4ccccn4)c(Cl)c3)c2c1: 19
- CC#C/C(=N\OC[C@@H]1COCCN1)c1ccc2ncnc(Nc3ccc4c(cnn4Cc4cccc(F)c4)c3)c2c1: 21
- CC#C/C(=N\OC[C@H]1CNCCO1)c1ccc2ncnc(Nc3ccc(OCc4ccccn4)c(Cl)c3)c2c1: 3.9
- CC#C/C(=N\O[C@H]1CN[C@H](CO)C1)c1ccc2ncnc(Nc3ccc(OCc4ccccn4)c(Cl)c3)c2c1: 15

(a) Fc1cccc(COc2ccc(Nc3ncnc4ccc(/C=N/N5CCCCC5)cc34)cc2Cl)c1
(b) CC#C/C(=N\OCCNC1CCN(S(C)(=O)=O)CC1)c1ccc2ncnc(Nc3ccc(OCc4ccccn4)c(Cl)c3)c2c1
(c) CC#C/C(=N\OC[C@@H]1COCCN1)c1ccc2ncnc(Nc3ccc(S(=O)(=O)c4ccccc4)cc3)c2c1
(d) CC#C/C(=N\OCCN1CCC(O)CC1)c1ccc2ncnc(Nc3ccc(OCc4ccccn4)c(Cl)c3)c2c1
Ask: Please list the entries, largest IC50 first. Returns: the labels listed in the requested order.
Result: a, c, d, b

(I) CC#C/C(=N\OCCNC1CC1)c1ccc2ncnc(Nc3ccc(OCc4ccccn4)c(Cl)c3)c2c1
(II) CC#CC(=NOCC1CNCCN1)c1ccc2ncnc(Nc3ccc(OCc4ccccn4)c(Cl)c3)c2c1 (stereo not drawn)
Ask: Between I and II , which one shows the larger IC50 value? Record your answer as the label of the chosen record.
Result: I

----------
Target: HER2 (Homo sapiens, UniProt P04626)
Construct: purchased Carna Biosciences, Inc; host or cells: insect cell expression system
Sequence (P04626 23-1255): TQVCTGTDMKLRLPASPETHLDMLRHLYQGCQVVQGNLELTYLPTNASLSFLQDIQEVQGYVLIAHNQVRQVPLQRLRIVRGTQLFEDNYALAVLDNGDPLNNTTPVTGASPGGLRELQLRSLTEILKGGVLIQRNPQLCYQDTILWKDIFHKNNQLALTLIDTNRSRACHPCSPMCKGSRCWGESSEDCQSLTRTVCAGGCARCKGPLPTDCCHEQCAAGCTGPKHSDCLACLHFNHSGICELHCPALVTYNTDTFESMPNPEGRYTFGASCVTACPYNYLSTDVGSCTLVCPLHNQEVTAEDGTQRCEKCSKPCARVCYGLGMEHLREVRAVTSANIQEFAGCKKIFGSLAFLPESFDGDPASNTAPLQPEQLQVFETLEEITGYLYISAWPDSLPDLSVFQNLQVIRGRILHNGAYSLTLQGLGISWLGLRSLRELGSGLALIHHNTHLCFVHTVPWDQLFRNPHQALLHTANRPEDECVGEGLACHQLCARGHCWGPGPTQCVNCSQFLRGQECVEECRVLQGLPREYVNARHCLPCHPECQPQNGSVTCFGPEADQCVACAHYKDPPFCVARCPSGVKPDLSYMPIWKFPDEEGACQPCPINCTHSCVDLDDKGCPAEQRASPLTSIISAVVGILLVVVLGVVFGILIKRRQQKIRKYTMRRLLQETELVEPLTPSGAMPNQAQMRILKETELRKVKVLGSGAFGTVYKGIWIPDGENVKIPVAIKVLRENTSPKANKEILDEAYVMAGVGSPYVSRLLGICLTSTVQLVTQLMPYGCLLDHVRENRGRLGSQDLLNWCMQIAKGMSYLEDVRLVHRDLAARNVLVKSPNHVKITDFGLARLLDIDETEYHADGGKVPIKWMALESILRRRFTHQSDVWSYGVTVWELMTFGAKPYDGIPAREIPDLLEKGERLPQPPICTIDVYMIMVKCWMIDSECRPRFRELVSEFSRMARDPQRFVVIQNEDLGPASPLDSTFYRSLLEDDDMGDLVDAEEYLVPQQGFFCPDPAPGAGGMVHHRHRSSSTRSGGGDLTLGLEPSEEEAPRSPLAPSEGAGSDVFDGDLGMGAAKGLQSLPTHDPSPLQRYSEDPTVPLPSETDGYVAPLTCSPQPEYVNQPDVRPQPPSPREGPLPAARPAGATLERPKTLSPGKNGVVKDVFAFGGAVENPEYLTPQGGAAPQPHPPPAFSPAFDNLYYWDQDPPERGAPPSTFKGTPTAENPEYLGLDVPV
Test: Enzyme inhibitory activity on HER2 (time resolution fluorescence, biotinylated poly-Glu-Tyr substrate)
Assay type: biochemical
Conditions: enzyme reaction at room temperature for 60 minutes
Method: Enzyme Inhibitory Activity of Test Compound on EGFR and HER2 EGFR and HER2 purified from an insect cell expression system, and a biotinylated substrate (synthetic peptide of glutamic acid:tyrosine=4:1) were added to a 384-well plate with ATP added thereto, and an enzyme reaction was performed at room temperature. […]
Property name: IC50 (nM)

* CC#C/C(=N\OCCNCCN(C)S(C)(=O)=O)c1ccc2ncnc(Nc3ccc4c(cnn4Cc4cccc(F)c4)c3)c2c1 | 26
* CC#C/C(=N\OCCNC1CCOCC1)c1ccc2ncnc(Nc3ccc(OCc4ccccn4)c(Cl)c3)c2c1 | 7.9
* CC#C/C(=N\OCCNCCOC(N)=O)c1ccc2ncnc(Nc3ccc4c(cnn4Cc4cccc(F)c4)c3)c2c1 | 9
* CC#C/C(=N\OCCNCCNS(C)(=O)=O)c1ccc2ncnc(Nc3ccc4c(cnn4Cc4cccc(F)c4)c3)c2c1 | 12.5
* CC#C/C(=N\OCCNC[C@H](C)CO)c1ccc2ncnc(Nc3ccc(OCc4ccccn4)c(Cl)c3)c2c1 | 4.3
* CNCCO/N=C(\C#CCOC)c1ccc2ncnc(Nc3ccc4c(cnn4Cc4cccc(F)c4)c3)c2c1 | 5.2
* CC#C/C(=N\OCCN(CC)CCOC)c1ccc2ncnc(Nc3ccc4c(cnn4Cc4cccc(F)c4)c3)c2c1 | 14.2
* CC#C/C(=N\OC[C@H]1CN(CCO)CCN1)c1ccc2ncnc(Nc3ccc(OCc4ccccn4)c(Cl)c3)c2c1 | 28

(I) CC#C/C(=N\OC[C@@H]1CCCN1)c1ccc2ncnc(Nc3ccc(OCc4ccccn4)c(Cl)c3)c2c1
(II) CC#C/C(=N\OCCNC)c1ccc2ncnc(Nc3ccc(OCc4ccccn4)c(Cl)c3)c2c1
Ask: // which entry reports the smaller IC50, I or II ? Record your answer as the label of the chosen record.
Result: II
(II: 7.3 nM, I: 11 nM)

(1) CC#C/C(=N\OCCNC)c1ccc2ncnc(Nc3ccc4c(cnn4Cc4cccc(F)c4)c3)c2c1
(2) CC#C/C(=N\OCCNCCS(C)(=O)=O)c1ccc2ncnc(Nc3ccc(OCc4ccccn4)c(Cl)c3)c2c1
Ask: Between 1 and 2 , which one shows the larger IC50 value? Record your answer as the label of the chosen record.
Result: 2
(2: 14 nM, 1: 8.3 nM)

(1) CC#C/C(=N\OCCNCCNC(C)=O)c1ccc2ncnc(Nc3ccc4c(cnn4Cc4cccc(F)c4)c3)c2c1
(2) CC#C/C(=N\OCCN1CCCC(O)C1)c1ccc2ncnc(Nc3ccc(OCc4ccccn4)c(Cl)c3)c2c1 (stereo not drawn)
Ask: Between 1 and 2 , which one shows the larger IC50 value? Record your answer as the label of the chosen record.
Result: 2
(2: 17 nM, 1: 7 nM)
